# SPOT intensity values compiled below
# Test System: GST
# Test Name: SPOT array
# Condition Details: median of control spots 978

{"Binder": "KMSRSPPRPPSLKII", "SPOT intensity": 1}
{"Binder": "NRLRKRLNLPSEISI", "SPOT intensity": 1}
{"Binder": "FIRKRAPTPPAPSRS", "SPOT intensity": 0}
{"Binder": "GSKSGPPPRPKKPST", "SPOT intensity": 2}
{"Binder": "TKPTPPPKPSHLKPK", "SPOT intensity": 0}
{"Binder": "SKAKRPKFLLDLQIK", "SPOT intensity": 2}
{"Binder": "FHLNPKRSAVLYDRP", "SPOT intensity": 5}
